# Test system: Escherichia coli
# experimentDescription: Antimicrobial activity against Escherichia coli at 5 ug/disk
# Type: functional, organism-based
The source made the active and inactive calls. The rule behind the calls is not given here.
observationType: Activity

smilesrepresentation=CC(=O)O[C@@H]1[C@H](C)OC(=O)[C@@H]1CCCCCCCCCCCCCCC1=C[C@H](C)OC1=O measured=inactive
smilesrepresentation=CC(=O)O[C@@H]1[C@H](C)OC(=O)[C@@H]1CCCCCC/C=C\CCCCCCC1=C[C@H](C)OC1=O measured=inactive
smilesrepresentation=CC(=O)O[C@H]1[C@H](C)OC(=O)[C@H]1CCCCCCCCCCCCC1=C[C@H](C)OC1=O measured=inactive
